test: Effect of oral ketoconazole 400 mg OD or 200 mg BID on plasma pharmacokinetics of a 300 mg single dose of mifepristone, fasted (Example 1); type: in vivo, human; details: male, human, plasma, oral, MIFE 300 mg single dose fasted; C2: Keto 200 mg BID; read-out: AUCtot (mean)
VALUE_KIND: AUC (µg·h/mL)
Numbers only, in µg·h/mL.

**Q:** Consider the compound CC#C[C@]1(O)CC[C@H]2[C@@H]3CCC4=CC(=O)CCC4=C3[C@@H](c3ccc(N(C)C)cc3)C[C@@]21C and give its recorded AUC.
**A:** 131

* * *

assay: Cross-study comparison of exposure to mifepristone and metabolites with historic 1200 mg OD mifepristone study (Example 3); format: in vivo, human; conditions: Test: present study Day 17, 600 mg mifepristone OD + 200 mg ketoconazole BID; Reference: historic study Day 7, 1200 mg mifepristone OD alone; after 34% fat meal
VALUE_KIND: Ratio % Test/Ref, Cmax (geometric mean ratio) (%)
Give bare numbers, in %.

CC#C[C@]1(O)CC[C@H]2[C@@H]3CCC4=CC(=O)CCC4=C3[C@@H](c3ccc(NC)cc3)C[C@@]21C [RU 42633]	96.31
CC#C[C@]1(O)CC[C@H]2[C@@H]3CCC4=CC(=O)CCC4=C3[C@@H](c3ccc(N(C)C)cc3)C[C@@]21C [Mifepristone]	84.64
CC#C[C@]1(O)CC[C@H]2[C@@H]3CCC4=CC(=O)CCC4=C3[C@@H](c3ccc(N)cc3)C[C@@]21C [RU 42848]	82.45

Proceed to the following item.
**Q:** Respond only with Ratio % Test/Ref, Cmax (geometric mean ratio) recorded for CN(C)c1ccc([C@H]2C[C@@]3(C)[C@@H](CC[C@@]3(O)C#CCO)[C@@H]3CCC4=CC(=O)CCC4=C32)cc1 [RU 42698]
**A:** 116.55

* * *

assay: Effect of ketoconazole 200 mg BID on PK of mifepristone 600 mg OD and metabolites, with food (Example 3); assay type: in vivo, human; settings: Test: Day 17, 600 mg mifepristone OD + 200 mg ketoconazole BID; Reference: Day 12, 600 mg mifepristone OD
Give measured Ratio % Test/Reference, Cmax (geometric mean ratio) for each item. Keep answers brief.
One number for each entry, in %.

Worked cases, answers included:
CC#C[C@]1(O)CC[C@H]2[C@@H]3CCC4=CC(=O)CCC4=C3[C@@H](c3ccc(N(C)C)cc3)C[C@@]21C	127.59
CC#C[C@]1(O)CC[C@H]2[C@@H]3CCC4=CC(=O)CCC4=C3[C@@H](c3ccc(NC)cc3)C[C@@]21C	105.73
CC#C[C@]1(O)CC[C@H]2[C@@H]3CCC4=CC(=O)CCC4=C3[C@@H](c3ccc(N)cc3)C[C@@]21C	95.48

**Q:** # return recorded Ratio % Test/Reference, Cmax (geometric mean ratio) for input CN(C)c1ccc([C@H]2C[C@@]3(C)[C@@H](CC[C@@]3(O)C#CCO)[C@@H]3CCC4=CC(=O)CCC4=C32)cc1
**A:** 169.13

* * *

experiment: Effect of oral ketoconazole 400 mg OD or 200 mg BID on plasma pharmacokinetics of a 300 mg single dose of mifepristone, fasted (Example 1); type: in vivo, human; details: male, human, plasma, oral, MIFE 300 mg single dose fasted; C1: Keto 400 mg OD; read-out: AUCtot (mean)
VALUE_KIND: AUC (µg·h/mL)
Numbers only, in µg·h/mL.

**Q:** Please indicate AUC recorded for CC#C[C@]1(O)CC[C@H]2[C@@H]3CCC4=CC(=O)CCC4=C3[C@@H](c3ccc(N(C)C)cc3)C[C@@]21C
**A:** 117

* * *

Test: Effect of ketoconazole 200 mg BID on PK of mifepristone 600 mg OD and metabolites, with food (Example 3)
Assay type: in vivo, human
Details: Day 17: mifepristone 600 mg daily + ketoconazole 200 mg twice daily; Day 12: mifepristone alone
Protocol: A single dose of ketoconazole was administered on Day −1. The study was a two period study design.
VALUE_KIND: concentrations on Day 17 compared with Day 12

CC#C[C@]1(O)CC[C@H]2[C@@H]3CCC4=CC(=O)CCC4=C3[C@@H](c3ccc(N)cc3)C[C@@]21C	similar
CN(C)c1ccc([C@H]2C[C@@]3(C)[C@@H](CC[C@@]3(O)C#CCO)[C@@H]3CCC4=CC(=O)CCC4=C32)cc1	higher
CC#C[C@]1(O)CC[C@H]2[C@@H]3CCC4=CC(=O)CCC4=C3[C@@H](c3ccc(NC)cc3)C[C@@]21C	similar
CC#C[C@]1(O)CC[C@H]2[C@@H]3CCC4=CC(=O)CCC4=C3[C@@H](c3ccc(N(C)C)cc3)C[C@@]21C	higher

* * *

Provide the recorded Ratio % Test/Reference, AUC0-24 (geometric mean ratio) for the entries that follow.
Experiment: Effect of ketoconazole 200 mg BID on PK of mifepristone 600 mg OD and metabolites, with food (Example 3)
Format: in vivo, human
Conditions: Test: Day 17, 600 mg mifepristone OD + 200 mg ketoconazole BID; Reference: Day 12, 600 mg mifepristone OD
Description: A single dose of ketoconazole was administered on Day −1. The study was a two period study design.
One number for each entry, in %.

CN(C)c1ccc([C@H]2C[C@@]3(C)[C@@H](CC[C@@]3(O)C#CCO)[C@@H]3CCC4=CC(=O)CCC4=C32)cc1	166.86

Respectfully, I request Ratio % Test/Reference, AUC0-24 (geometric mean ratio) for each entry included below.
1. CC#C[C@]1(O)CC[C@H]2[C@@H]3CCC4=CC(=O)CCC4=C3[C@@H](c3ccc(NC)cc3)C[C@@]21C
2. CC#C[C@]1(O)CC[C@H]2[C@@H]3CCC4=CC(=O)CCC4=C3[C@@H](c3ccc(N(C)C)cc3)C[C@@]21C

**A:**
[102.33, 138.01]

**Q:** Identify Ratio % Test/Reference, AUC0-24 (geometric mean ratio) associated with the compound CC#C[C@]1(O)CC[C@H]2[C@@H]3CCC4=CC(=O)CCC4=C3[C@@H](c3ccc(N)cc3)C[C@@]21C
**A:** 94.88

* * *

assay: Cross-study comparison of exposure to mifepristone and metabolites with historic 1200 mg OD mifepristone study (Example 3); assay type: in vivo, human; conditions: Test: present study Day 17, 600 mg mifepristone OD + 200 mg ketoconazole BID; Reference: historic study Day 7, 1200 mg mifepristone OD alone; after 34% fat meal
VALUE_KIND: Ratio % Test/Ref, AUC0-24 (geometric mean ratio)
Kindly format the answer as number then unit.

Example entries begin here.
CC#C[C@]1(O)CC[C@H]2[C@@H]3CCC4=CC(=O)CCC4=C3[C@@H](c3ccc(N(C)C)cc3)C[C@@]21C	87.27%
CC#C[C@]1(O)CC[C@H]2[C@@H]3CCC4=CC(=O)CCC4=C3[C@@H](c3ccc(N)cc3)C[C@@]21C	81.43%
CN(C)c1ccc([C@H]2C[C@@]3(C)[C@@H](CC[C@@]3(O)C#CCO)[C@@H]3CCC4=CC(=O)CCC4=C32)cc1	118.18%

Here's the next entry for you.
**Q:** Check the records and state Ratio % Test/Ref, AUC0-24 (geometric mean ratio) for CC#C[C@]1(O)CC[C@H]2[C@@H]3CCC4=CC(=O)CCC4=C3[C@@H](c3ccc(NC)cc3)C[C@@]21C
**A:** 91.34%
